target: T1, mfNPR1-mFc:hANP complex (monkey; human, UniProt P01160 124-151); assay: SPR, mAb captured, 25C
T1 construct: also called monkey NPR1 complexed to ANP
Kindly state Kd for each of the entries shown.
Answer format reminder: number followed by unit.

Before answering, review these 4 worked examples.
{"binder": "mAb25508 (antibody, human IgG4, V domains shown) VH: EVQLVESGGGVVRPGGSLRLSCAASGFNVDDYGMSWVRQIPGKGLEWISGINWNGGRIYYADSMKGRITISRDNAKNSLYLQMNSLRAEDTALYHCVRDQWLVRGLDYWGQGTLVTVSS VL: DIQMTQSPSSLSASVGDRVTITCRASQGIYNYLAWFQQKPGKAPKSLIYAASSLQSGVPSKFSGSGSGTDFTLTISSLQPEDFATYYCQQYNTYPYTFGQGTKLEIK", "Kd": "0.233 nM"}
{"binder": "mAb22809 (antibody, human IgG4, V domains shown) VH: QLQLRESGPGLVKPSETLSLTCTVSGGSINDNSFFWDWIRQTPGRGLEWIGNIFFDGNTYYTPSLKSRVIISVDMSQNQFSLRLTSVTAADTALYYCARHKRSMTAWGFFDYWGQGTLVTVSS VL: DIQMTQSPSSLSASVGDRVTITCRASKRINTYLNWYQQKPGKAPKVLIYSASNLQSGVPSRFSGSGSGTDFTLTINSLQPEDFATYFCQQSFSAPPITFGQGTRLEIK", "Kd": "3.88 nM"}
{"binder": "mAb25497 (antibody, human IgG4, V domains shown) VH: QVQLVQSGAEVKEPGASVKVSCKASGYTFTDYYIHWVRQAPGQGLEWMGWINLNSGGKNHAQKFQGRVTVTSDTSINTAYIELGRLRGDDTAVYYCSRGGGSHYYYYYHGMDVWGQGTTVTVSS VL: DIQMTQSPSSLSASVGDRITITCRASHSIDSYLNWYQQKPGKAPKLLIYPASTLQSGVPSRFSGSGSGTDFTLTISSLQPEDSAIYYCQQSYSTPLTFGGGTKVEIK", "Kd": "0.24 nM"}
{"binder": "mAb22035 (antibody, human IgG4, V domains shown) VH: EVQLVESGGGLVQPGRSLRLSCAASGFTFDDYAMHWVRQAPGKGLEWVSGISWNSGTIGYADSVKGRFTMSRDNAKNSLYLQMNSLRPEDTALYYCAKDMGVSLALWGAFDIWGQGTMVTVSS VL: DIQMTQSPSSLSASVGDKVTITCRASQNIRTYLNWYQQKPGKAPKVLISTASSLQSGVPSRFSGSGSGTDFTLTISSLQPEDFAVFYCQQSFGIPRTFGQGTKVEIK", "Kd": "0.246 nM"}

Hi, could you look up Kd for each item in my list?
1. mAb25491 (antibody, human IgG4, V domains shown) VH: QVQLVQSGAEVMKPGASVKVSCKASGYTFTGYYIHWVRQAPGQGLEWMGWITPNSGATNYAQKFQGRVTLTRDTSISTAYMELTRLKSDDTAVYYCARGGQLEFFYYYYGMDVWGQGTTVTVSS VL: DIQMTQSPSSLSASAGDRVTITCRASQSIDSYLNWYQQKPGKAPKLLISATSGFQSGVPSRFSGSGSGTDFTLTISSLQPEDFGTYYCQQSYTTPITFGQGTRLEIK
2. mAb22805 (antibody, human IgG4, V domains shown) VH: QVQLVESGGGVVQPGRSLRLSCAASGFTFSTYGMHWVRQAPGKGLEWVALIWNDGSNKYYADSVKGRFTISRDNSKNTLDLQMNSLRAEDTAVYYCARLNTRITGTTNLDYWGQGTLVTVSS VL: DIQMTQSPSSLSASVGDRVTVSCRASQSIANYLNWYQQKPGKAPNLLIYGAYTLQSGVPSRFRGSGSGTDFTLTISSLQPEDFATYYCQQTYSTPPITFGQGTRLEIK
3. mAb22033 (antibody, human IgG4, V domains shown) VH: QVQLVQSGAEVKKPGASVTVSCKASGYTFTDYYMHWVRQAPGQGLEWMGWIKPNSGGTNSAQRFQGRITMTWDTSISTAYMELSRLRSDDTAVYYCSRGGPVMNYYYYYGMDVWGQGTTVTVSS VL: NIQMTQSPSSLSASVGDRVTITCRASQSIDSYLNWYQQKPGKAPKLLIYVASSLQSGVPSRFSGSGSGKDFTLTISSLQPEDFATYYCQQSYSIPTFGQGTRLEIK
4. mAb25502 (antibody, human IgG4, V domains shown) VH: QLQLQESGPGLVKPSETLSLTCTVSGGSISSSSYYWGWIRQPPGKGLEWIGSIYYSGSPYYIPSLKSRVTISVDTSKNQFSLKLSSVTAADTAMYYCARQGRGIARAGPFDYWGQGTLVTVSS VL: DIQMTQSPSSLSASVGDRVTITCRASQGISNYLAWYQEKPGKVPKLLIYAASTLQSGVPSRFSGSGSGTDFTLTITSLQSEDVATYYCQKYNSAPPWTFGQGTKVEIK

["0.757 nM", "1.96 nM", "0.815 nM", "3.56 nM"]

For mAb25479 (antibody, human IgG4, V domains shown) VH: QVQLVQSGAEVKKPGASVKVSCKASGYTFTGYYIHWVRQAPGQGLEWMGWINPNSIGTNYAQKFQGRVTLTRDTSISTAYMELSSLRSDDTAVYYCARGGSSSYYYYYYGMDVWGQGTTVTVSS VL: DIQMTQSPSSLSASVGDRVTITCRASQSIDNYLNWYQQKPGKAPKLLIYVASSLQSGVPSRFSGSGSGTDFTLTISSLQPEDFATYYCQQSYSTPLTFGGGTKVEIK , what is its reported Kd?
2.44 nM
